System: CCRF-CEM leukemia
experiment-description: NCI-60 one-dose screen, 48 h (100 = growth as untreated, 0 = no growth, -100 = all killed)
cond: 10 µM unless noted
This is part of a sample that, as a whole, favours compounds with a hit. Of some 83,000 tested, about 20% had one in any assay. Calls of active or inactive are those of the source. Rule for the calls: active = growth percent below 10; inactive = the rest.
parameter: growth

# annotated cases, reported growth shown
COCCCN=C(N)c1ccc(NC(=O)c2ccc(C(=O)Nc3ccc(C(N)=NCCCOC)cc3)cc2)cc1	108% (inactive)
COC(=O)C12C3C(=O)N(c4ccc(OC)cc4)C(=O)C3C(c3cn(-c4ccccc4)nc3C)N1[C@H](c1cn(-c3ccccc3)nc1C)[C@@H]1C(=O)N(c3ccc(OC)cc3)C(=O)[C@@H]12 (stereo partly specified)	104% (inactive)
COc1ccc(-c2nn(-c3ccccc3)cc2/C=C2\SC(=O)NC2=O)cc1	91.9% (inactive)

State recorded growth for all listed molecules.
1. CN(C)CC(=O)Nc1ccc(Cn2nnc3c2C(=O)c2nnn(Cc4ccc(NC(=O)CN(C)C)cc4)c2C3=O)cc1
2. CCCCCCCCOC(=O)CC[C@@H](C)[C@H]1CC[C@H]2[C@@H]3[C@H](OC(=O)CCN)C[C@@H]4C[C@H](OC(=O)CCN)CC[C@]4(C)[C@H]3C[C@H](OC(=O)CCN)[C@]12C
3. CC(=O)Oc1cc2cnc3c4cc(OC(C)=O)c(OC(C)=O)cc4ccc3c2cc1OC(C)=O
4. CC1(C)OCC2OC3(C(=O)O)OC(C)(C)OC3C2O1 (stereo unspecified)
5. CC/C=C\C[C@H](F)C/C=C1/C(=O)C=C[C@@H]1C/C=C\CCCC(=O)O

["-32.9% (active)", "-37.5% (active)", "-6.55% (active)", "108% (inactive)", "-7.62% (active)"]

State recorded growth for all listed molecules.
1. CN(C)C(=O)c1cc2cnc(Nc3ccc(-c4csc5c(=O)cc(N6CCNCC6)oc45)cc3)nc2n1C1CCCC1
2. O=C(CCCN1CCOCC1)Nc1ccc(Cn2nnc3c2C(=O)c2nnn(Cc4ccc(NC(=O)CCCN5CCOCC5)cc4)c2C3=O)cc1

1.39% (active)
-3.08% (active)

Tell me the measured growth of C[C@@H]1CC[C@@H]2[C@@H]1[C@H](OC(=O)/C=C/c1ccccc1)[C@]1(C3CCCCC3)C[C@@H](OC(=O)CO)[C@@]2(C)O1 , please.
62.8% (inactive)

----------
Test system: MALME-3M melanoma
experiment-description: NCI-60 one-dose screen, 48 h (100 = growth as untreated, 0 = no growth, -100 = all killed)
cond: 10 µM unless noted
About 83,000 compounds went through this panel and 20% of them were active in at least one assay; those are over-represented in the sample as a whole.
parameter: growth (%)
Give bare numbers, in %.

# annotated cases, reported growth shown
CC1(C)CC(=O)C(c2c(-c3ccccc3)[nH]c3[nH]c(=S)[nH]c(=O)c23)=C(O)C1	112
O=C(CO[N+](=O)[O-])Nc1ccc(C(=O)/C=C/c2ccc3c(c2)OCO3)cc1	116

State recorded growth for all listed compounds.
1. CC1=CC(=O)CC(C)(C)[C@@]1(O)/C=C/[C@@H](C)O
2. CC[C@@H](C)OC(=O)c1nn(C(C)=O)c2ccccc12
3. CCC(=O)Oc1ccc(/C(=C(\C)c2ccccc2)c2ccc(OCCN(CC)CC)cc2)cc1
4. O=c1ccc2cc3ccccc3cc2[nH]1
5. CC(=O)C1=C(O)C=C2Oc3c(C(=O)/C=C/c4cc(Cl)cc(Cl)c4)c(O)c(C)c(O)c3[C@]2(C)C1=O
6. O=C1Nc2ccccc2/C1=C/C(=N/c1nnc(-c2ccc(Cl)cc2)s1)c1ccccc1
7. CC#Cc1nc2ccccc2c(=O)[nH]1

102
109
80.3
112
-62.4
-26.5
65.5

State recorded growth for all listed compounds.
1. CN(CC(=O)N(Cc1ccc(C2CCCCC2)cc1)c1ccc(C(=O)NO)cc1)S(=O)(=O)c1c(F)c(F)c(F)c(F)c1F
2. c1ccc(CSc2ncnc3nc[nH]c23)nc1

86.4
103

State recorded growth for all listed compounds.
1. CC(C)c1c(C(=O)Nc2ccccc2)c(-c2ccccc2)c(-c2ccc(F)cc2)n1CC[C@@H]1CC=CC(=O)O1
2. Oc1ccccc1/C=N/Nc1ccc2ccccc2n1
3. COc1cc(C2CC(=O)Nc3c2cnn3Cc2ccco2)cc2c1OCCO2 (configuration not stated)
4. CN(C)c1ccc(/C=C(\C#N)c2nc3ccccc3s2)cc1
5. CC1(C)OCC2OC3(C(=O)O)OC(C)(C)OC3C2O1 (configuration not stated)

1. 8.81
2. 35.2
3. 102
4. 111
5. 104

----------
System: LOX IMVI melanoma
experiment-description: NCI-60 one-dose screen, 48 h
cond: 10 µM unless noted
The panel holds about 83,000 compounds, 20% with a hit somewhere; the sample as a whole holds those more often. Active and inactive are the calls of the source. Rule for the calls: active = growth percent below 10; inactive = the rest.
A correct response names exactly one class from yes (active), no (inactive)

Example cases with answers are listed next.
NC(=S)N/N=C/c1cc(-c2cccc(N)c2)ccn1	no
COc1ccc(C(=O)/C=C/c2cc3ccccc3[nH]c2=O)cc1	no
COc1ccc(-c2cn3c(ccc4ccccc43)n2)cc1	no
C=C1CC2(OC1=O)C(=O)Nc1ccccc12 (configuration not stated)	no
C=C1CC[C@@H]2[C@](C)(COC(C)=O)[C@H](OC(C)=O)CC[C@@]2(C)[C@@H]1CC(Nc1ccc(S(=O)(=O)Nc2ccc(Cl)nn2)cc1)C1=CCOC1=O (some centres not stated)	yes
COCCCN=C(N)c1ccc(NC(=O)c2ccc(C(=O)Nc3ccc(C(N)=NCCCOC)cc3)cc2)cc1	no

Below: the item to evaluate.
Fill in: this test's call for O=C1c2c[n+](Cc3ccccc3)ccc2-c2nc3ccccc3c3ccnc1c23 is ___
yes

----------
Exercise: state measured growth for each of the compounds provided.
System: TK-10 renal
experiment-description: NCI-60 one-dose screen, 48 h (100 = growth as untreated, 0 = no growth, -100 = all killed)
cond: 10 µM unless noted
The panel holds about 83,000 compounds, 20% with a hit somewhere; the sample as a whole holds those more often.
One number for each entry, in %.

# annotated cases, reported growth shown
CC(C)n1cc2c(N)ncnc2n1	96.6
C=C1CC2(OC1=O)C(=O)N(CCCCCCCN1C(=O)C3(CC(=C)C(=O)O3)c3ccccc31)c1ccccc12 (configuration not stated)	45.2
O=C(CN1CCN(c2cc3c(cc2F)c(=O)c(C(=O)O)cn3C2CC2)CC1)Nc1nc(-c2ccc(Cl)cc2)cs1	26.7
COc1ccc(Cl)cc1Nc1nc(C(F)(F)F)ccc1C(=O)N/N=C/c1cccnc1	49
COc1ccc(-c2cc(/C=C3\C(=O)Nc4ccc(Cl)cc43)[nH]n2)cc1	86.9

State recorded growth for all listed compounds.
1. CC1=N/C(=C\c2cccc(Br)c2)C(=O)O1
2. COc1ccc(-c2nn(-c3ccccc3)cc2/C=C/C(=O)OCc2cn(-c3ccc(F)c(Cl)c3)nn2)cc1
3. C/C(Cc1ccc(Cl)cc1)=C(\c1ccc(OCCN2CCCCCC2)cc1)c1ccc(OC(=O)C2CCCCC2)cc1
4. COC(=S)SCN(CSC(=S)OC)c1ccc(Cl)cc1
5. CC(=O)C1=C(O)C=C2Oc3c(C(=O)/C=C/c4ccccc4)c(O)c(C)c(O)c3[C@]2(C)C1=O

101
118
84.1
109
33.6

State recorded growth for all listed compounds.
1. c1ccc(Sc2ncnc3ccccc23)cc1
2. COc1nc2c(cc1S(=O)(=O)c1ccccc1)CCc1c-2cnn1-c1ccc(Cl)cc1
3. NS(=O)(=O)c1ccc(-n2ncc3c(=O)[nH]c(CN4CCN(c5cc6c(cc5F)c(=O)c(C(=O)O)cn6C5CC5)CC4)nc32)cc1
4. CC(=O)/C(=C/c1cccc(Cl)c1)C(=O)c1ccccc1

96.5
110
119
96.6

State recorded growth for all listed compounds.
1. COc1cc(NCCCCN=C(N)N)c2ncccc2c1
2. CS(=O)CCCCCN=C=S (configuration not stated)
3. Oc1ccccc1/C=N/Nc1ccc2ccccc2n1
4. COc1cc(/C=C2\CN(C(=O)CCN3CCC(=NO)CC3)C/C(=C\c3cc(OC)c(OC)c(OC)c3)C2=O)cc(OC)c1OC
5. C=C1CCC2C3(C)COC(c4ccc(OC)cc4Br)OC3CCC2(C)C1/C=C/C1=CCOC1=O (configuration not stated)

70.9
-27.7
62.8
-69.2
83.9

----------
Test system: SK-MEL-28 melanoma
experiment-description: NCI-60 one-dose screen, 48 h (100 = growth as untreated, 0 = no growth, -100 = all killed)
cond: 10 µM unless noted
This is part of a sample that, as a whole, favours compounds with a hit. Of some 83,000 tested, about 20% had one in any assay. Active and inactive are the calls of the source. The calls were made as follows: active = growth percent below 10; inactive = the rest.
parameter: growth

# annotated cases, reported growth shown
Oc1cc(O)c2c(=S)cc(-c3ccc(Cl)cc3)oc2c1	40.5% (inactive)
C[C@@H]1CCC2=C(CCC[C@]2(C)C(=O)O)[C@@]1(C)CCc1ccoc1	115% (inactive)
C[C@@H]1CC[C@@H]2[C@@H]1[C@H](OC(=O)/C=C/c1ccccc1)[C@]1(c3ccccc3)C[C@@H](OC(=O)CO)[C@@]2(C)O1	101% (inactive)
CC1(C)OCC2OC3(C(=O)O)OC(C)(C)OC3C2O1 (centres undefined)	124% (inactive)
Cc1nn(-c2nc3ccccc3[nH]2)c2c1C(c1ccc3c(c1)OCO3)CC(=O)N2 (centres undefined)	82.3% (inactive)
COCCOC(=O)C1=C(C)NC(=S)NC1c1ccc2c(c1)OCO2 (centres undefined)	114% (inactive)
S=c1[nH]nc(CSc2ncnc3c2c(-c2ccccc2)cn3-c2ccc(Cl)cc2)o1	115% (inactive)
Cc1ccc2c(c1)C(=O)/C(=C/c1ccc(OCC(=O)c3ccccc3)cc1)O2	112% (inactive)

State recorded growth for all listed compounds.
1. O=C1c2cccnc2C(=O)c2c1c(C(=O)OCCN1CCCCC1)c1ccccn21
2. CC(C)n1cc2c(N)ncnc2n1
3. CN1CCN(c2ccc3nc(-c4ccc5nc(-c6ccc(OCCC(C)(C)C)cc6)[nH]c5c4)[nH]c3c2)CC1

["-37.9% (active)", "152% (inactive)", "-59.2% (active)"]

State recorded growth for all listed compounds.
1. COc1ccc2c(c1)C(=O)/C(=C/c1cccc(OCC(=O)Nc3nc4c(s3)CCCC4)c1)O2
2. CCN(C(=O)CN1CCN(c2cc3c(cc2F)c(=O)c(C(=O)O)cn3C2CC2)CC1)c1nc(-c2ccc(OC)cc2)cs1
3. CN1/C(=C\C=C\C2=[N+](C)c3ccccc3C2(C)C)C(C)(C)c2ccccc21

1: 38.1% (inactive); 2: 45.1% (inactive); 3: -25.4% (active)
